# ASSAY_REMARKS: qHTS assay to identify small molecule antagonists of the sonic hedgehog signaling (Shh) pathway - cell viability counter screen (AID 1259367); also: nearly all actives have a fitted effect of over 55% in size; also: potency is read from the fitted curve at half-maximal effect
# PROTOCOL_CONDITIONS: NIH/3T3 Gli1-Luc viability, CellTiter-Fluor, 24 h; series mostly up to 42.5 µM
Inconclusive results are not listed. The source made the active and inactive calls. Calls follow the shape of the dose curve; as a rule, active = well fitted cell-killing curve with a large enough effect in the repeat runs; inconclusive = weak or mixed curves, or effect the other way; inactive = no such curve, though single readings can be large or run the other way.
ASSAY_ENDPOINT: Potency

{"COMPOUND": "CC(C)(C)C(=O)OCOC(=O)[C@@H]1N2C(=O)[C@@H](NC(=O)[C@H](N)c3ccccc3)[C@H]2SC1(C)C", "TEST_RESULT": "inactive"}
{"COMPOUND": "Cc1cc2c(cc1C(F)(F)F)N(C(=O)Nc1ccc(Oc3cccnc3C)nc1)CC2", "TEST_RESULT": "inactive"}
{"COMPOUND": "O=C(OCC1CO1)C1CCCCC1C(=O)OCC1CO1 (stereo not given)", "TEST_RESULT": "13.7 µM (active)"}
{"COMPOUND": "CN(C)[C@@H]1C(=O)C(C(N)=O)=C(O)[C@@]2(O)C(=O)C3=C(O)c4c(O)cccc4C[C@H]3C[C@@H]12", "TEST_RESULT": "inactive"}

Please supply Potency for each of the following items, keeping them in order.
1. O=C(O)c1c(Cl)cccc1Cl
2. Fc1ccc([C@@H]2CCNC[C@H]2COc2ccc3c(c2)OCO3)cc1
3. Nc1c(Cl)cc(Cl)cc1Cl
4. OCCN1CCN(CC/C=C2/c3ccccc3Sc3ccc(C(F)(F)F)cc32)CC1
5. CCOC(=O)O[C@H](C)OC(=O)c1ccc2c(c1)cc(C(=O)NC1CCN(C(C)C)CC1)n2Cc1cc(-c2ccc(Cl)s2)on1
6. Cc1c(C)c2c(c(C)c1O)CCC(C)(COc1ccc(CC3SC(=O)NC3=O)cc1)O2 (stereo not given)

1: inactive; 2: inactive; 3: inactive; 4: inactive; 5: 20.3 µM (active); 6: inactive
